- SYSTEM_TESTED: Melatonin receptor type 1A (Homo sapiens, UniProt P48039)
- Sequence (P48039 whole entry): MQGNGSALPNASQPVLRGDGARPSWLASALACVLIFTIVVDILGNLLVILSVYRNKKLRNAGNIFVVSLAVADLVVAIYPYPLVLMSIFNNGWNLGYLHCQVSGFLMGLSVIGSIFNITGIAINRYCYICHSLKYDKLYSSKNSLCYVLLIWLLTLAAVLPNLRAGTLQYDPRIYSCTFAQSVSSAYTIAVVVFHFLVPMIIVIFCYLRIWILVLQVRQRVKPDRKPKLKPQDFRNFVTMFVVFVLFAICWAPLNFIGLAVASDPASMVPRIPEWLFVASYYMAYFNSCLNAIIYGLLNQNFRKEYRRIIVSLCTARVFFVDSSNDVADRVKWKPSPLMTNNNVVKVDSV
EXPERIMENTAL_ENDPOINT: Ki (nM)

(A) COc1ccc(/C=C/C2=[N+]3C(=Cc4c(CCNC(C)=O)c5cc(OC)ccc5n4[B-]3(F)F)C=C2)cc1
(B) COc1ccc2c(c1)c(CCNC(C)=O)c1n2[B-](F)(F)[N+]2=C(C)C=C(C)C2=C1
For the pair A and B , which entry has the numerically smaller recorded Ki? Selection: enter the item's label.
B
(B: 32 nM, A: 71 nM)

====

- SYSTEM_TESTED: Melatonin receptor type 1B (Homo sapiens)
- Sequence (P49286 whole entry): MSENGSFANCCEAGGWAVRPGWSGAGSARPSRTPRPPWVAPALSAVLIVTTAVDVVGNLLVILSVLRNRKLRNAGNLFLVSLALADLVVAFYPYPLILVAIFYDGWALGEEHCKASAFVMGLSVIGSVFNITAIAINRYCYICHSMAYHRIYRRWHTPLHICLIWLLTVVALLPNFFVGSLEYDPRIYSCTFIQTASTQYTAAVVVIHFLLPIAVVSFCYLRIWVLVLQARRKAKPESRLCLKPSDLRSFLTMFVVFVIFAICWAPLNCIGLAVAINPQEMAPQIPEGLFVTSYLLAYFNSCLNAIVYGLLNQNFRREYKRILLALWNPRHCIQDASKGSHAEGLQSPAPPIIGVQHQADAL
- EXPERIMENTAL_DETAILS: Displacement of 2-[125I]iodomelatonin from human melatonin MT2 receptor expressed in CHO cells after 120 mins
- Assay type: cell-based
EXPERIMENTAL_ENDPOINT: Ki (µM)

(a) COc1ccc(/C=C/C2=[N+]3C(=Cc4c(CCNC(C)=O)c5cc(OC)ccc5n4[B-]3(F)F)C=C2)cc1
(b) CCC1=C(C)C2=Cc3c(CCNC(C)=O)c4cc(OC)ccc4n3[B-](F)(F)[N+]2=C1C
(c) COc1ccc(C2=[N+]3C(=Cc4c(CCNC(C)=O)c5cc(OC)ccc5n4[B-]3(F)F)C=C2)cc1
Given 3 compounds, produce a descending ranking by Ki. Form entry: ranked labels (order as requested).
c, b, a
